test system: 945468-187-T-J2-PDC spheroids viability; assay: Anticancer human tumor 945468-187-T-J2-PDC patient-derived rectal carcinoma cell line growth inhibition [PI3K]; conditions: second compound 3.16 µM; first compound 0.0316 µM; stronger effect = lower value; spheroids with HUVEC and MSC;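 further: spheroids exposed to compounds for seven days before reading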
Below: a set of entries, each annotated with reported viability, T/C.
Entry rule: numbers only, all in %.

Before answering, review these 3 worked examples.
[[record]]
compound = "CNC(=O)c1ccc(N2C(=S)N(c3ccc(C#N)c(C(F)(F)F)c3)C(=O)C2(C)C)cc1F + CC(Nc1ncnc2nc[nH]c12)c1cc2cccc(Cl)c2c(=O)n1-c1ccccc1"
readout_value = 111

[[record]]
compound = "CC(=O)c1c(C)c2cnc(Nc3ccc(N4CCNCC4)cn3)nc2n(C2CCCC2)c1=O + Cc1nc(NC(=O)N2CCCC2C(N)=O)sc1-c1ccnc(C(C)(C)C(F)(F)F)c1"
readout_value = 83

[[record]]
compound = "CC(C)n1nc(-c2ccc3oc(N)nc3c2)c2c(N)ncnc21 + CC(Nc1ncnc2nc[nH]c12)c1cc2cccc(Cl)c2c(=O)n1-c1ccccc1"
readout_value = 92.9


// viability, T/C value for CC1(C)CCC(CN2CCN(c3ccc(C(=O)NS(=O)(=O)c4ccc(NCC5CCOCC5)c([N+](=O)[O-])c4)c(Oc4cnc5[nH]ccc5c4)c3)CC2)=C(c2ccc(Cl)cc2)C1 + CC(Nc1ncnc2nc[nH]c12)c1cc2cccc(Cl)c2c(=O)n1-c1ccccc1 : 96

// viability, T/C value for Cn1ncc(Cl)c1-c1cc(C(=O)NC(CN)Cc2cccc(F)c2)sc1Cl (centres undefined) + CC(Nc1ncnc2nc[nH]c12)c1cc2cccc(Cl)c2c(=O)n1-c1ccccc1 : 83.3

// viability, T/C value for CC(Cn1ccc(-c2ccc(C#N)c(Cl)c2)n1)NC(=O)c1cc(C(C)O)[nH]n1 (centres undefined) + CC(Nc1ncnc2nc[nH]c12)c1cc2cccc(Cl)c2c(=O)n1-c1ccccc1 : 92.7

// viability, T/C value for Cn1ncc(Cl)c1-c1cc(C(=O)NC(CN)Cc2cccc(F)c2)sc1Cl (centres undefined) + Cc1nc(NC(=O)N2CCCC2C(N)=O)sc1-c1ccnc(C(C)(C)C(F)(F)F)c1 : 86.7

// viability, T/C value for Cn1nccc1Nc1nccc(-c2ccn(C(CO)c3ccc(Cl)c(F)c3)c(=O)c2)n1 (centres undefined) + Cc1nc(NC(=O)N2CCCC2C(N)=O)sc1-c1ccnc(C(C)(C)C(F)(F)F)c1 : 85.9

// viability, T/C value for C=CC(=O)N1CCN(c2nc(=O)n(-c3c(C)ccnc3C(C)C)c3nc(-c4c(O)cccc4F)c(F)cc23)C(C)C1 (centres undefined) + CC(Nc1ncnc2nc[nH]c12)c1cc2cccc(Cl)c2c(=O)n1-c1ccccc1 : 94.6

// viability, T/C value for CCCS(=O)(=O)Nc1ccc(F)c(C(=O)c2c[nH]c3ncc(-c4ccc(Cl)cc4)cc23)c1F + Cc1nc(NC(=O)N2CCCC2C(N)=O)sc1-c1ccnc(C(C)(C)C(F)(F)F)c1 : 68.8

// viability, T/C value for CC(C)NCC(C(=O)N1CCN(c2ncnc3c2C(C)CC3O)CC1)c1ccc(Cl)cc1 (centres undefined) + CC(Nc1ncnc2nc[nH]c12)c1cc2cccc(Cl)c2c(=O)n1-c1ccccc1 : 80.8

// viability, T/C value for Cn1nccc1Nc1nccc(-c2ccn(C(CO)c3ccc(Cl)c(F)c3)c(=O)c2)n1 (centres undefined) + CC(Nc1ncnc2nc[nH]c12)c1cc2cccc(Cl)c2c(=O)n1-c1ccccc1 : 88.2

// viability, T/C value for C#Cc1c(F)ccc2cc(O)cc(-c3ncc4c(N5CC6CCC(C5)N6)nc(OCC56CCCN5CC(F)C6)nc4c3F)c12 (centres undefined) + CC(Nc1ncnc2nc[nH]c12)c1cc2cccc(Cl)c2c(=O)n1-c1ccccc1 : 91

// viability, T/C value for CNC(=O)c1ccc(N2C(=S)N(c3ccc(C#N)c(C(F)(F)F)c3)C(=O)C2(C)C)cc1F + Cc1nc(NC(=O)N2CCCC2C(N)=O)sc1-c1ccnc(C(C)(C)C(F)(F)F)c1 : 81.1

// viability, T/C value for CC1(C)CCC(Nc2ncc(C(F)(F)F)c(-c3c[nH]c4c(P(C)(C)=O)c(C#N)ccc34)n2)CN1 (centres undefined) + Cc1nc(NC(=O)N2CCCC2C(N)=O)sc1-c1ccnc(C(C)(C)C(F)(F)F)c1 : 99.8

// viability, T/C value for CC(C)NCC(C(=O)N1CCN(c2ncnc3c2C(C)CC3O)CC1)c1ccc(Cl)cc1 (centres undefined) + Cc1nc(NC(=O)N2CCCC2C(N)=O)sc1-c1ccnc(C(C)(C)C(F)(F)F)c1 : 79.6

// viability, T/C value for C#Cc1c(F)ccc2cc(O)cc(-c3ncc4c(N5CC6CCC(C5)N6)nc(OCC56CCCN5CC(F)C6)nc4c3F)c12 (centres undefined) + Cc1nc(NC(=O)N2CCCC2C(N)=O)sc1-c1ccnc(C(C)(C)C(F)(F)F)c1 : 85.6

// viability, T/C value for Cn1ncnc1[C@H]1c2n[nH]c(=O)c3cc(F)cc(c23)N[C@@H]1c1ccc(F)cc1 + CC(Nc1ncnc2nc[nH]c12)c1cc2cccc(Cl)c2c(=O)n1-c1ccccc1 : 99.4

// viability, T/C value for CC(=O)c1c(C)c2cnc(Nc3ccc(N4CCNCC4)cn3)nc2n(C2CCCC2)c1=O + CC(Nc1ncnc2nc[nH]c12)c1cc2cccc(Cl)c2c(=O)n1-c1ccccc1 : 111
